tested on: HCC-2998 colon; assay: NCI tumour cell line growth inhibition, 48 h
measure: TGI

Some compounds with known TGI results, for comparison:
{"columns": ["compound", "TGI"],
 "data": [
  ["C=C(NC(=O)C(=C)NC(=O)c1csc(C2=NC3c4csc(n4)C4NC(=O)c5csc(n5)C(C(C)(O)C(C)O)NC(=O)C5CSC(=N5)C(=CC)NC(=O)C(C(C)O)NC(=O)c5csc(n5)C3(CC2)NC(=O)C(C)NC(=O)C(=C)NC(=O)C(C)NC(=O)C(C(C)CC)NC2C=Cc3c(C(C)O)cc(nc3C2O)C(=O)OC4C)n1)C(N)=O (stereo not given)", "> 100 µM"],
  ["COc1cc(OC)c(SSCCCCS(=O)O)c(OC)c1", "42.4 µM"],
  ["NC(N)=NS(=O)(=O)c1ccc(NNc2c3ccccc3nc3c(C(=O)Nc4ccc(S(=O)(=O)N=C(N)N)cc4)cccc23)cc1", "> 100 µM"],
  ["O=C1c2ccccc2CN1c1ccc(OCCN2CCCCC2)cc1", "> 10 µM"],
  ["O=C(N/N=C/c1c(-c2ccccc2)no[n+]1[O-])N1CCOCC1", "> 100 µM"]
]}

Read off the recorded TGI for `CNC(=O)c1ccc(N2C(=S)N(c3ccc(C#N)c(C(F)(F)F)c3)C(=O)C2(C)C)cc1F`
> 65.8 µM

Read off the recorded TGI for `O=C1NC(=O)C(c2ccccc2Cl)=C1Nc1cc(Cl)c(O)c(Cl)c1`
> 25 µM

Read off the recorded TGI for CCOC(=O)NC1C2CC(=O)OC(O2)C1OC(C)=O (stereo not given)
> 100 µM

Read off the recorded TGI for `c1ccc(C2=NCCN2)c(C2=NCCN2)c1`
> 100 µM

Read off the recorded TGI for `CCN(CC)c1ccc2cc(C(N)=S)c(=N)oc2c1`
> 100 µM

====

test system: HOP-62 NSCLC; test: NCI tumour cell line growth inhibition, 48 h
measure: GI50

Some molecules with known GI50 results, for comparison:
{"columns": ["molecule", "GI50"],
 "data": [
  ["O=C1NC(=O)C(c2ccccc2Cl)=C1Nc1cc(Cl)c(O)c(Cl)c1", "14500 nM"],
  ["O=c1cc(N2CCN(CCCCCOc3cc(O)c4c(=O)cc(-c5ccccc5)oc4c3)CC2)c2ccccc2o1", "> 100000 nM"],
  ["CCN(Cc1ccccc1)c1ccc(CO)c(Cl)c1", "963 nM"],
  ["COc1ccc(/C(COc2ccc3c(=O)c(-c4ccccc4)coc3c2)=N\\O)cc1", "8520 nM"],
  ["N#Cc1ccc2c(c1)C(=O)c1c-2n(CCCCl)c(=O)c2cc([N+](=O)[O-])ccc12", "2550 nM"],
  ["COc1cc(N2CCC(N3CCN(C)CC3)CC2)ccc1Nc1ncnc(Nc2ccccc2S(=O)(=O)C(C)C)n1", "2290 nM"],
  ["O=S(=O)(NCCCNc1nccc(-c2c(-c3ccc(F)c(O)c3)nc3sccn23)n1)c1ccc(F)cc1", "2780 nM"],
  ["Cc1cc(-c2nc3sccn3c2/C=N/N=C(N)N)c(C)s1", "17400 nM"],
  ["CC(=O)N1C/C(=C/c2ccc(Cl)cc2)C(=O)/C(=C/c2ccc(Cl)cc2)C1", "516 nM"]
]}

State recorded GI50 with HOP-62 NSCLC, entry CC1=C(C(=O)Nc2ccc(Cl)c(Cl)c2)C(c2cccc(Cl)c2)NC(=O)N1 (stereo not given) , no comment.
10400 nM

====

Attribute: TGI
system: UACC-257 melanoma; assay: NCI tumour cell line growth inhibition, 48 h

Some molecules with known TGI results, for comparison:
{"columns": ["molecule", "target or system", "TGI"],
 "data": [
  ["COC(=O)c1ccccc1C1CN=NC12Cc1ccccc1C2=O (stereo not given)", "UACC-257 melanoma", "> 100 µM"],
  ["CC(=O)OC[C@]1(C)CCCC2(C)C1CCC1C=C(C)[C@H]3CCC12C3 (stereo not given in full)", "UACC-257 melanoma", "> 100 µM"],
  ["COc1cc(-c2ccc(-c3ccc(C(=N)N)nc3)s2)cc(OC)c1OC", "UACC-257 melanoma", "4.07 µM"],
  ["CNC(=O)c1ccc(N2C(=S)N(c3ccc(C#N)c(C(F)(F)F)c3)C(=O)C2(C)C)cc1F", "UACC-257 melanoma", "> 80.7 µM"],
  ["N#CC(C#N)=C/C=C(\\Sc1c(Cl)c(Cl)nc(Cl)c1Cl)c1ccc(Cl)cc1", "UACC-257 melanoma", "37.2 µM"],
  ["O=c1[nH]/c(=C/c2ccc(OCc3ccccc3)cn2)c(=O)[nH]/c1=C/c1ccc(F)cc1", "UACC-257 melanoma", "58.4 µM"],
  ["CC(C)(C)[Si](C)(C)Oc1cc(CO)cc2c1cc(=N)o[n+]2[O-]", "UACC-257 melanoma", "> 10 µM"],
  ["CC(=C/C=C/C=C(C)\\C=C\\C=C(\\C)C(=O)O)/C=C/C=C(/C)C(=O)O", "UACC-257 melanoma", "> 100 µM"],
  ["CCCCCCCCCCCCN1[C@H]2CCC[C@H]2C(O)[C@@H]2CCC[C@@H]21 (stereo not given in full)", "UACC-257 melanoma", "> 100 µM"]
]}

Now look at this one.
Read off the recorded TGI for `Cc1cccc(C)c1NC(=O)C(=O)CC(=O)/C=C/c1ccccc1`
> 100 µM

====

system: M19-MEL melanoma; test: NCI tumour cell line growth inhibition, 48 h
measure: TGI

Some compounds with known TGI results, for comparison:
{"columns": ["compound", "target or system", "TGI"],
 "data": [
  ["CC(=O)NC1=C(NC(C)(C)C)C(=O)c2ccccc2C1=O", "M19-MEL melanoma", "28.7 µM"],
  ["Cc1ccc(/C(O)=C/c2nc3c(nc2NC24CC5CC(CC(C5)C2)C4)c(=O)oc2ccccc23)cc1", "M19-MEL melanoma", "> 100 µM"],
  ["c1ccc2c(NCCCCCCNc3c4ccccc4nc4ccccc34)c3ccccc3nc2c1", "M19-MEL melanoma", "2.48 µM"],
  ["C/C=C1\\C=C(OC)CN(CCc2c[nH]c3ccccc23)C1", "M19-MEL melanoma", "> 100 µM"],
  ["O=C(O)NC(c1ccccc1)C(NC(=O)c1ccccc1)c1ccccc1 (centres undefined)", "M19-MEL melanoma", "> 100 µM"]
]}

State recorded TGI with M19-MEL melanoma, entry CC(=O)OC[C@]1(C)CCCC2(C)C1CCC1C=C(C)[C@H]3CCC12C3 (some centres undefined) , no comment.
> 100 µM

====

Attribute: TGI
system: SF-268 CNS; test: NCI tumour cell line growth inhibition, 48 h

Some molecules with known TGI results, for comparison:
{"columns": ["molecule", "target or system", "assay value"],
 "data": [
  ["CCN(CC)c1ccc2cc(C(N)=S)c(=N)oc2c1", "SF-268 CNS", "> 100 µM"],
  ["N#CC(C#N)=C/C=C(\\Sc1c(Cl)c(Cl)nc(Cl)c1Cl)c1ccc(Cl)cc1", "SF-268 CNS", "54.1 µM"],
  ["O=C1CCCCCCCCCCC1CCCCCBr (centres undefined)", "SF-268 CNS", "> 100 µM"],
  ["CC1(C)CC2=C(Sc3ccccc3N2)C(=O)C1C(=O)C(=O)Nc1cccc([N+](=O)[O-])c1 (centres undefined)", "SF-268 CNS", "> 100 µM"],
  ["O=c1cc(N2CCN(CCCCCOc3cc(O)c4c(=O)cc(-c5ccccc5)oc4c3)CC2)c2ccccc2o1", "SF-268 CNS", "> 100 µM"]
]}

Read off the recorded TGI for `N#Cc1ccc2c(c1)C(=O)c1c-2n(CCCCl)c(=O)c2cc([N+](=O)[O-])ccc12`
> 100 µM

Read off the recorded TGI for `CCO/C=N\c1c(C#N)c(-c2ccc(Cl)cc2)cn1-c1ccc(C)cc1`
> 100 µM

Read off the recorded TGI for CC(=O)[CH-]C(=O)c1ccccc1.CC(=O)[CH-]C(=O)c1ccccc1.CC(C)CCCC(C)[C@H]1CCC2[C@@H]3CC=C4C[C@@H]([O-])CC[C@]4(C)C3CC[C@@]21C.CC(C)CCCC(C)[C@H]1CCC2[C@@H]3CC=C4C[C@@H]([O-])CC[C@]4(C)C3CC[C@@]21C.[Ti+4] (some centres undefined)
> 100 µM

Read off the recorded TGI for `CO[C@@H]1C[C@H]2[C@@H]3CC[C@H]([C@@H](C)CO)[C@@]3(C)CC[C@@H]2[C@@]2(C)CC[C@H]3C[C@]312`
> 100 µM

====

test system: SK-MEL-2 melanoma; experiment: NCI tumour cell line growth inhibition, 48 h; in the data active = GI50 below about 0.43 µM; inactive = the rest
Classes to choose from: active, inactive

{"columns": ["molecule", "label"],
 "data": [
  ["C/C(=N\\Nc1cc(C)c2ccccc2n1)c1ccccn1", "active"],
  ["C=C1C(=O)O[C@H]2[C@H]1CC/C(COC(=O)C(=O)c1cn(C)c3ccc(Cl)cc13)=C\\CC[C@@]1(C)O[C@@H]21", "inactive"],
  ["CC1=C(C(=O)Nc2ccc(Cl)c(Cl)c2)C(c2cccc(Cl)c2)NC(=O)N1 (stereo not drawn)", "inactive"],
  ["NC1CCC(Nc2nc(NCc3ccc(-c4ccccc4O)nc3)c3ncn(C4CCCC4)c3n2)CC1 (stereo not drawn)", "active"],
  ["Cc1ccc(Cc2cnc(NC(=O)/C=C/c3cccc(C)c3)s2)cc1", "inactive"]
]}

Test call for this molecule, please: `O=C1CC(=O)N(C(=O)c2nn(-c3ccc(Cl)cc3)cc2O)N1`
inactive

Test call for this molecule, please: `COc1cccc(/C=C/[N+](=O)[O-])c1`
inactive

Test call for this molecule, please: `CNC(=S)NC(=O)c1c(Cl)n(C(=O)OC(C)(C)C)c2ccccc12`
inactive

Test call for this molecule, please: `CCN(Cc1ccccc1)c1ccc(CO)c(Cl)c1`
inactive

Test call for this molecule, please: C=C(NC(=O)C(=C)NC(=O)c1csc(C2=NC3c4csc(n4)C4NC(=O)c5csc(n5)C(C(C)(O)C(C)O)NC(=O)C5CSC(=N5)C(=CC)NC(=O)C(C(C)O)NC(=O)c5csc(n5)C3(CC2)NC(=O)C(C)NC(=O)C(=C)NC(=O)C(C)NC(=O)C(C(C)CC)NC2C=Cc3c(C(C)O)cc(nc3C2O)C(=O)OC4C)n1)C(N)=O (stereo not drawn)
inactive

Test call for this molecule, please: `CC(C)C[C@H](NC(=O)Cn1ccc(NCc2ccccc2)cc1=O)B(O)O`
inactive

Test call for this molecule, please: `O=S(=O)(NCCCNc1nccc(-c2c(-c3ccc(F)c(O)c3)nc3sccn23)n1)c1ccc(F)cc1`
inactive

Test call for this molecule, please: CC(=Nc1ccccc1)C1=C(O)C(Cc2ccc(O)cc2)NC1=O (stereo not drawn)
active
